These data points were gathered from ChEMBL document CHEMBL5316329.

assay: Cytotoxicity against human MT4 cells assessed as reduction in cell viability treated for 5 days by MTT assay
Type: toxicity, cell-based
assay-context: time 5 day
measured-property: CC50 at 120 h (µM)
Lab book: enter the figure in µM, no units written.

Quick check: CC50 at 120 h of Cc1cc(/C=C/C#N)cc(C)c1Oc1nc(NC2CCN(Cc3ccc(S(N)(=O)=O)cc3)CC2)ncc1-c1ccccc1O ? 12.5

Then this compound: Cc1cc(/C=C/C#N)cc(C)c1Oc1nc(NC2CCN(Cc3ccc(C(N)=O)cc3)CC2)ncc1-c1cccc(N)c1 8.37

Do the same for Cc1cc(/C=C/C#N)cc(C)c1Oc1nc(NC2CCN(Cc3ccc(S(N)(=O)=O)cc3)CC2)ncc1-c1ccc2c(c1)OCO2 please 6.4

Same again, this time with CC(=O)c1ccc(-c2cnc(NC3CCN(Cc4ccc(S(N)(=O)=O)cc4)CC3)nc2Oc2c(C)cc(/C=C/C#N)cc2C)cc1 8.09

What would you report for Cc1cc(/C=C/C#N)cc(C)c1Oc1nc(NC2CCN(Cc3ccc(S(C)(=O)=O)cc3)CC2)ncc1-c1ccc2c(c1)OCO2 ? 4.29

// query: Cc1cc(/C=C/C#N)cc(C)c1Oc1nc(NC2CCN(Cc3ccc(S(N)(=O)=O)cc3)CC2)ncc1-c1cccc(N)c1 6.94

What about Cc1cc(/C=C/C#N)cc(C)c1Oc1nc(NC2CCN(Cc3ccc(S(C)(=O)=O)cc3)CC2)ncc1-c1ccc(N)cc1 ? 6.74

Try this compound next: Cc1cc(/C=C/C#N)cc(C)c1Oc1nc(NC2CCN(Cc3ccc(C(N)=O)cc3)CC2)ncc1-c1ccc(F)cc1 8.23

Same again, this time with Cc1cc(/C=C/C#N)cc(C)c1Oc1nc(NC2CCN(Cc3ccc(C(N)=O)cc3)CC2)ncc1-c1ccc2c(c1)OCO2 5.32

Same for Cc1cc(/C=C/C#N)cc(C)c1Oc1nc(NC2CCN(Cc3ccc(S(C)(=O)=O)cc3)CC2)ncc1-c1cccc(O)c1 4.35

Another compound: Cc1cc(/C=C/C#N)cc(C)c1Oc1nc(NC2CCN(Cc3ccc(C(N)=O)cc3)CC2)ncc1-c1ccccc1N 11.7

Note, next up: Cc1cc(/C=C/C#N)cc(C)c1Oc1nc(NC2CCN(Cc3ccc(S(N)(=O)=O)cc3)CC2)ncc1-c1ccc(F)cc1 9.63

Subsequent entry: Cc1cc(/C=C/C#N)cc(C)c1Oc1nc(NC2CCN(Cc3ccc(S(C)(=O)=O)cc3)CC2)ncc1-c1cccc(N)c1 4.12

Entry to check: Cc1cc(/C=C/C#N)cc(C)c1Oc1nc(NC2CCN(Cc3ccc(S(N)(=O)=O)cc3)CC2)ncc1-c1cccc(F)c1 14.2

And Cc1cc(/C=C/C#N)cc(C)c1Oc1nc(NC2CCN(Cc3ccc(S(C)(=O)=O)cc3)CC2)ncc1-c1ccc(O)cc1 ? 5.41

Okay, and Cc1cc(/C=C/C#N)cc(C)c1Oc1nc(NC2CCN(Cc3ccc(S(N)(=O)=O)cc3)CC2)ncc1-c1ccc(N)cc1 ? 3.81

Same lookup for Cc1cc(/C=C/C#N)cc(C)c1Oc1nc(NC2CCN(Cc3ccc(S(N)(=O)=O)cc3)CC2)ncc1-c1ccccc1F , please. 10.9

Now consider Cc1cc(/C=C/C#N)cc(C)c1Oc1nc(NC2CCN(Cc3ccc(S(N)(=O)=O)cc3)CC2)ncc1-c1ccc(O)cc1 . 4.44

Quick one: Cc1cc(/C=C/C#N)cc(C)c1Cc1nc(NC2CCN(Cc3ccc(S(C)(=O)=O)cc3)CC2)ncc1-c1cnc(N)nc1 1.73

Continue with Cc1cc(/C=C/C#N)cc(C)c1Oc1nc(NC2CCN(Cc3ccc(S(C)(=O)=O)cc3)CC2)ncc1-c1ccccc1O 6.73

Please answer likewise for Cc1cc(/C=C/C#N)cc(C)c1Cc1nc(NC2CCN(Cc3ccc(S(N)(=O)=O)cc3)CC2)ncc1-c1cncnc1 11.3

Cool, now Cc1cc(/C=C/C#N)cc(C)c1Oc1nc(NC2CCN(Cc3ccc(C(N)=O)cc3)CC2)ncc1-c1ccc(N)cc1 3.91

Cc1cc(/C=C/C#N)cc(C)c1Oc1nc(NC2CCN(Cc3ccc(C(N)=O)cc3)CC2)ncc1-c1cccc(O)c1 , same question. 36.9

What do we get for Cc1cc(/C=C/C#N)cc(C)c1Oc1nc(NC2CCN(Cc3ccc(S(C)(=O)=O)cc3)CC2)ncc1-c1ccccc1F ? 11.6

How about Cc1cc(/C=C/C#N)cc(C)c1Cc1nc(NC2CCN(Cc3ccc(C(N)=O)cc3)CC2)ncc1-c1cnc(N)nc1 ? 3.07

Also Cc1cc(/C=C/C#N)cc(C)c1Oc1nc(NC2CCN(Cc3ccc(S(C)(=O)=O)cc3)CC2)ncc1-c1ccccc1N ? 5.11

What about Cc1cc(/C=C/C#N)cc(C)c1Oc1nc(NC2CCN(Cc3ccc(S(N)(=O)=O)cc3)CC2)ncc1-c1cccc(O)c1 ? 7.85

What would you report for Cc1cc(/C=C/C#N)cc(C)c1Cc1nc(NC2CCN(Cc3ccc(S(C)(=O)=O)cc3)CC2)ncc1-c1cncnc1 ? 2.9

Another: CC(=O)c1ccc(-c2cnc(NC3CCN(Cc4ccc(S(C)(=O)=O)cc4)CC3)nc2Oc2c(C)cc(/C=C/C#N)cc2C)cc1 8.46
